# Test system: Mycobacterium tuberculosis
# EXPERIMENT NOTES: Antimycobacterial activity against isoniazid resistant Mycobacterium tuberculosis ATCC 35822 after 7 days by resazurin microtiter assay
# Assay type: functional
# CONDITION PARAMETERS: ATCC 35822, 168 h
OBSERVABLE: MIC

The reported MIC of the compound CO[C@H]1/C=C/O[C@@]2(C)Oc3c(C)c(O)c4c(O)c(c(/C=N/N5CCN(C)CC5)c(O)c4c3C2=O)NC(=O)/C(C)=C\C=C\[C@H](C)[C@H](O)[C@@H](C)[C@@H](O)[C@@H](C)[C@H](OC(C)=O)[C@@H]1C was ≤ 0.03 µg/mL

The reported MIC of the compound CC1(C)CCC2=C(O1)c1ccccc1C(=O)C2=O was 3.12 µg/mL

The reported MIC of the compound CC1(C)OC2=C(CC1I)C(=O)/C(=N\NC(=O)c1ccncc1)c1ccccc12 (centres undefined) was 100 µg/mL

The reported MIC of the compound CC1(C)CC2=C(O1)/C(=N\NC(=O)c1ccncc1)c1ccccc1C2=O was 100 µg/mL

The reported MIC of the compound CC1(C)OC2=C(CC1Br)C(=O)/C(=N\NC(=O)c1ccncc1)c1ccccc12 (centres undefined) was 12.5 µg/mL

The reported MIC of the compound CC1(C)CC2=C(O1)C(=O)c1ccccc1C2=O was 25 µg/mL

The reported MIC of the compound CC1(C)CC2=C(O1)c1ccccc1C(=O)C2=O was 12.5 µg/mL

The reported MIC of the compound CC1(C)OC2=C(C(=O)/C(=N\NC(=O)c3ccncc3)c3ccccc32)C1Nc1ccccc1 (centres undefined) was 100 µg/mL

The reported MIC of the compound CC1(C)OC2=C(CC1Br)C(=O)C(=O)c1ccccc12 (centres undefined) was 6.25 µg/mL

###

# System: Mycobacterium tuberculosis
# EXPERIMENT NOTES: Antimycobacterial activity against isoniazid resistant Mycobacterium tuberculosis ATCC 35822 after 7 days by resazurin microtiter assay
# Type: functional
# CONDITION PARAMETERS: ATCC 35822, 168 h
Kindly supply the reported log10 of MIC values for the records listed here.
All values: log10 MIC [µg/mL].

The reported log10 of MIC of the compound CC1(C)OC2=C(C(=O)/C(=N\NC(=O)c3ccncc3)c3ccccc32)C1n1cc(-c2ccccc2)nn1 (centres undefined) was 1.10

The reported log10 of MIC of the compound CC1(C)OC2=C(CC1I)C(=O)C(=O)c1ccccc12 (centres undefined) was 0.49

The reported log10 of MIC of the compound CC1(C)OC2=C(C(=O)C(=O)c3ccccc32)C1n1cc(-c2ccccc2)nn1 (centres undefined) was 1.40

The reported log10 of MIC of the compound O=C1C2=C(OC(Cn3cc(-c4ccccc4)nn3)C2)c2ccccc2/C1=N/NC(=O)c1ccncc1 (centres undefined) was 1.70

The reported log10 of MIC of the compound CC1(C)OC2=C(C(=O)C(=O)c3ccccc32)C1Nc1ccccc1 (centres undefined) was 0.49

The reported log10 of MIC of the compound CC1(C)CC2=C(O1)c1ccccc1/C(=N/NC(=O)c1ccncc1)C2=O was 1.70

The reported log10 of MIC of the compound CC1(C)OC2=C(C(=O)C(=O)c3ccccc32)[C@H](n2cc(-c3ccccc3)nn2)[C@H]1Br (racemic) was 0.80

The reported log10 of MIC of the compound CC1CC2=C(O1)c1ccccc1/C(=N/NC(=O)c1ccncc1)C2=O (centres undefined) was 1.10

###

# Tested on: Mycobacterium tuberculosis
# EXPERIMENT NOTES: Antimycobacterial activity against isoniazid resistant Mycobacterium tuberculosis ATCC 35822 after 7 days by resazurin microtiter assay
# Format: functional
# CONDITION PARAMETERS: ATCC 35822, 168 h
OBSERVABLE: MIC (µg/mL)
Please give a number only; it is taken to be in µg/mL.

// returns MIC for CC1(C)OC2=C(C(=O)/C(=N\NC(=O)c3ccncc3)c3ccccc32)C1O (stereo unspecified) with Mycobacterium tuberculosis; value = 200

// returns MIC for CC1(C)CCC2=C(O1)c1ccccc1/C(=N/NC(=O)c1ccncc1)C2=O with Mycobacterium tuberculosis; value = 50

// returns MIC for O=C1C(=O)c2ccccc2C2=C1CC(Cn1cc(-c3ccccc3)nn1)O2 (stereo unspecified) with Mycobacterium tuberculosis; value = 25

// returns MIC for CC1(C)OC2=C(C(=O)/C(=N\NC(=O)c3ccncc3)c3ccccc32)[C@H](n2cc(-c3ccccc3)nn2)[C@H]1Br with Mycobacterium tuberculosis; value = 200

// returns MIC for CC1(C)OC2=C(C(=O)C(=O)c3ccccc32)C1O (stereo unspecified) with Mycobacterium tuberculosis; value = 25

// returns MIC for NNC(=O)c1ccncc1 with Mycobacterium tuberculosis; value = 2
